- Test system: MDR-EAEC isolate KY941937.1 (MDR 2)
- Experiment Notes: In vitro antibiotic susceptibility testing
- Format: cell-based, enteroaggregative Escherichia coli
- Design: key: S – Sensitive; R- Resistant
- Conditions: CLSI 2018
Readout Kind: Antibiotic Susceptibility testing

Examples with answers:
>>> print(df.to_string())
                                   compound                       readout_kind  result
0  C[C@@H](O)[C@H]1C(=O)N2C(C(=O)O)=C(SCCN=CN)C[C@H]12  Antibiotic Susceptibility testing       S
1  O=C(N[C@H](CO)[C@H](O)c1ccc([N+](=O)[O-])cc1)C(Cl)Cl  Antibiotic Susceptibility testing       S
2  CN(C)[C@@H]1C(O)=C(C(N)=O)C(=O)[C@@]2(O)C(O)=C3C(=O)c4c(O)cccc4[C@@](C)(O)[C@H]3C[C@@H]12  Antibiotic Susceptibility testing       R
3           Cc1cc(NS(=O)(=O)c2ccc(N)cc2)no1  Antibiotic Susceptibility testing       S
4  CO/N=C(\C(=O)N[C@@H]1C(=O)N2C(C(=O)O)=C(CSc3nc(=O)c(=O)[nH]n3C)CS[C@H]12)c1csc(N)n1  Antibiotic Susceptibility testing       R
5  CNC(C)C1CCC(N)C(OC2C(N)CC(N)C(OC3OCC(C)(O)C(NC)C3O)C2O)O1 (stereo not shown)  Antibiotic Susceptibility testing       S

From here, focus on the item given below.
Fill in: Antibiotic Susceptibility testing of CC1(C)S[C@@H]2[C@H](NC(=O)[C@H](N)c3ccccc3)C(=O)N2[C@H]1C(=O)O is ___
R

Just for reference, paper PMC6895141 is where these values come from.
